B1: library; a variant is named by its letters at N, in order (parent)
chain: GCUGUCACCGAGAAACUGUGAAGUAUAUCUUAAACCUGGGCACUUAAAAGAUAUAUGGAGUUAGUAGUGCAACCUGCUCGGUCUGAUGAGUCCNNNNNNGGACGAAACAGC

# Variants of: B1
# Experimental Details: normalized RNA/DNA level with ligand (relative to sTRSVctl = 100) (log10 (% of sTRSVctl)); HEK293T; ligand: cyclic di-GMP (c-di-GMP-II aptamer); ligand concentration (+) RNA-Seq: 1 mM; higher = less ribozyme self-cleavage, higher mRNA level
# Study Conditions: reporter: mCherry (pCS4076), ligand present: yes
Metric Name: normalized RNA/DNA level with ligand (log10)

{"Variant Key": "AGUCUC", "Reported Measurement": 1.88}
{"Variant Key": "AGUGAC", "Reported Measurement": 1.77}
{"Variant Key": "CUUCAG", "Reported Measurement": 1.81}
{"Variant Key": "GUAUAC", "Reported Measurement": 1.81}
{"Variant Key": "GUCCCC", "Reported Measurement": 1.86}
{"Variant Key": "AACCCA", "Reported Measurement": 1.81}
{"Variant Key": "AUCGGA", "Reported Measurement": 1.7}
{"Variant Key": "UCAACA", "Reported Measurement": 1.81}
{"Variant Key": "CUGGAG", "Reported Measurement": 1.77}
{"Variant Key": "AUACAC", "Reported Measurement": 1.82}
{"Variant Key": "GACGUC", "Reported Measurement": 1.87}
{"Variant Key": "AACUCU", "Reported Measurement": 1.88}
{"Variant Key": "AAGUCA", "Reported Measurement": 1.77}
{"Variant Key": "UAGAGU", "Reported Measurement": 1.73}
{"Variant Key": "UGGCGU", "Reported Measurement": 1.81}
{"Variant Key": "UACGGG", "Reported Measurement": 1.79}
{"Variant Key": "CCCCAC", "Reported Measurement": 1.88}
{"Variant Key": "ACCGAG", "Reported Measurement": 1.74}
{"Variant Key": "ACGCUU", "Reported Measurement": 1.6}
{"Variant Key": "ACCCUG", "Reported Measurement": 1.83}
{"Variant Key": "GUACCA", "Reported Measurement": 1.81}
{"Variant Key": "ACUGAU", "Reported Measurement": 1.62}
